The origin of these recorded values is PubChem BioAssay (NCATS).

# tgt: Catechol O-methyltransferase (Homo sapiens) (UniProt P21964)
# Sequence (P21964 whole entry, looked up): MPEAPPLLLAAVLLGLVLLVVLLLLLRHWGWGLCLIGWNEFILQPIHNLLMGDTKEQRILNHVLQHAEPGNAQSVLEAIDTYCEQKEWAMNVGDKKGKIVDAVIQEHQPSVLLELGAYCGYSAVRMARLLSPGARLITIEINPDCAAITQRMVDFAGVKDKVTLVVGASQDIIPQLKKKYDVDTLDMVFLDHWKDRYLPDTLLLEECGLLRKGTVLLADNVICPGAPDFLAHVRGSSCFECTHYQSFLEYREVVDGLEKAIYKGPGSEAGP
# methodNotes: Confirmatory Screen for Target Class Profiling of Small Molecule Inhibitors of Methyltransferases (AID 1745852)
# protocolConditions: MTase-Glo luminescence, SAH detection, recombinant enzyme; measured here: COMT max response; stronger effect = lower value
readout: activity (%)
Write the answer as a number in %, unit excluded.

Data point: CCOC(=O)c1cccc(Nc2cc(C)nc3ccc(C)cc23)c1 ; activity = -4.58

Data point: CC1CCCCC1NC(=O)C1(C)Cn2c(cc3sccc32)C(=O)N1Cc1ccc(Cl)cc1 (centres undefined) ; activity = -7.44

Data point: COc1ccc(-c2nnn3c2nc(NCCc2ccc(OC)c(OC)c2)c2ccccc23)cc1 ; activity = -10.5

Data point: Cc1ccc(Cn2c(=O)c3ccccc3n3c(CCC(=O)NCCN4CCCC4)nnc23)cc1 ; activity = -6.32

Data point: CNC(=O)NCCc1ncc(C)n1C1CCCCCCC1 ; activity = 1.76

Data point: Cc1cccc(N2CCN(C(=O)c3ccc4c(=O)[nH]c5c(C(=O)NC(C)C)sc(=S)n5c4c3)CC2)c1C ; activity = -37.2

Data point: CC(C)NC(=O)c1ccccc1OCC1CCCN(Cc2cn(C)c3ccccc23)C1 (centres undefined) ; activity = 8.45

Data point: O=C(CCc1nnc2n(Cc3ccccc3Cl)c(=O)c3ccccc3n12)NCCc1c[nH]c2ccccc12 ; activity = 4.12

Data point: CN(CCCNC(=O)CCc1nnc2n(Cc3ccccc3)c(=O)c3ccccc3n12)Cc1ccccc1 ; activity = 1.61

Data point: COc1ccccc1N1CCN(S(=O)(=O)c2cccc3c2C(=O)c2ccccc2C3=O)CC1 ; activity = -3.23

Data point: CCCn1c(=O)c2ccccc2n2c(=O)n(CC(=O)c3cc(C)ccc3C)nc12 ; activity = 1.84

Data point: COc1ccc(S(=O)(=O)N2CCC(n3c(=O)[nH]c4ccccc43)CC2)cc1 ; activity = -23.2

Data point: COc1ccnc(-c2nnc3ccc(Nc4cc(OC)c(OC)c(OC)c4)nn23)c1 ; activity = -13.7

Data point: CC(C)Cn1c(=O)c2ccccc2n2c(CCC(=O)N3CCN(c4cccc(Cl)c4)CC3)nnc12 ; activity = -1.89

Data point: CCN(CCc1nc2ccc(C)cc2[nH]1)C(=O)c1ccccc1C1CCNC1 (centres undefined) ; activity = 6.01

Data point: O=C(CCC[C@@H]1[C@H]2CCCN3CCC[C@@H](CN1Cc1ccccc1)[C@@H]23)Nc1cccnc1 ; activity = -3.16

Data point: Cc1ccccc1Sc1ccc(/C=C2\SC(=S)NC2=O)cc1[N+](=O)[O-] ; activity = -5.04

Data point: COc1ccc(CCNC(=O)c2ccc3c(=O)[nH]c4c(C(=O)NCC5CCCO5)sc(=S)n4c3c2)cc1OC (centres undefined) ; activity = -41.4

Data point: Cc1ccc(NS(=O)(=O)c2ccc3[nH]c(=O)[nH]c3c2)cc1F ; activity = -8.47

Data point: COc1ccc(OC)c2c1cc1n2CC(C)(C(=O)NC2CCCCC2)N(Cc2ccccn2)C1=O (centres undefined) ; activity = -7.35

Data point: CN(CCCNC(=O)Cn1ccc2cc(S(=O)(=O)N3CCCCC3)ccc21)C1CCCCC1 ; activity = 1.24

Data point: CCOC(=O)c1ccc(NC(=O)Cn2c(=O)oc3cc(S(=O)(=O)N4CCCC4)ccc32)cc1 ; activity = -7.51

Data point: CC1CCCCN1CCCNC(=O)Cn1ccc2cc(S(=O)(=O)N3CCCCC3)ccc21 (centres undefined) ; activity = 1.36

Data point: O=C1c2ccccc2C(=O)c2cc(S(=O)(=O)N(CCO)CCO)ccc21 ; activity = -23

Data point: CCN1CCN(c2nc3c(S(=O)(=O)c4ccc(C)cc4)nnn3c3ccccc23)CC1 ; activity = -6.68

Data point: CC1CCCCN1CCNC(=O)Cn1ccc2cc(S(=O)(=O)N3CCCCC3)ccc21 (centres undefined) ; activity = 0.614

Data point: Cc1noc(C)c1-c1cc2c(cc(C)n2CCN(C)C)c(Nc2ccncn2)n1 ; activity = -14.2

Data point: CCN(CC)CCCNC(=O)CCc1nnc2n(Cc3ccc(Cl)cc3)c(=O)c3ccccc3n12 ; activity = 4.07

Data point: Nc1nc(NCc2ccc(Cl)cc2Cl)cc(C2CC(O)C2)n1 (centres undefined) ; activity = 1.79

Data point: C[C@H]1CN(C(=O)c2nn(C)c3ccccc23)C[C@@H]1c1nc(-c2cccnc2)no1 ; activity = 15.6

Data point: c1ccc(-c2cc3c(cn2)NCCN(CC2CC2)C3)cc1 ; activity = 8.66

Data point: O=C(CCn1c(=O)[nH]c2cc(S(=O)(=O)N3CCCCC3)ccc21)Nc1ccc(Cl)cc1 ; activity = -1.03

Data point: O=C(Nc1ccc2c(N3CCCCC3)ncnc2c1)c1ccccc1C(F)(F)F ; activity = -15.7

Data point: CCCCN1C(=O)c2cc(C(=O)Nc3cc(C)cc(C)c3)nn2CC1(C)C(=O)NC1CCCC1 (centres undefined) ; activity = -1.58

Data point: O=C(c1cc(-c2ccccc2)n[nH]1)N1CCc2c(nc(-c3ccccc3)[nH]c2=O)C1 ; activity = 4.33

Data point: Cn1c(=O)n(C)c2cc(S(=O)(=O)Nc3ccc(-c4nnc(-c5ccccc5)o4)c(Cl)c3)ccc21 ; activity = -28.6

Data point: COc1ccc(CN2CCCC(COc3ccccc3C(=O)NC3CC3)C2)c(OC)c1 (centres undefined) ; activity = 4.91

Data point: COc1cc2nc(N3CCCCC3)nc(NC3CCN(C)CC3)c2cc1OC ; activity = 1.4

Data point: O=C(Cn1c(=O)oc2cc(S(=O)(=O)N3CCCC3)ccc21)NCCC1=CCCCC1 ; activity = -0.904
